Data provenance is paper PMC10671052.

system: human cystathionine-γ-lyase (hCSE) (Homo sapiens, UniProt P32929)
Construct: His6-TEV (N, cleaved yes); host or cells: E. coli
Sequence (P32929 whole entry): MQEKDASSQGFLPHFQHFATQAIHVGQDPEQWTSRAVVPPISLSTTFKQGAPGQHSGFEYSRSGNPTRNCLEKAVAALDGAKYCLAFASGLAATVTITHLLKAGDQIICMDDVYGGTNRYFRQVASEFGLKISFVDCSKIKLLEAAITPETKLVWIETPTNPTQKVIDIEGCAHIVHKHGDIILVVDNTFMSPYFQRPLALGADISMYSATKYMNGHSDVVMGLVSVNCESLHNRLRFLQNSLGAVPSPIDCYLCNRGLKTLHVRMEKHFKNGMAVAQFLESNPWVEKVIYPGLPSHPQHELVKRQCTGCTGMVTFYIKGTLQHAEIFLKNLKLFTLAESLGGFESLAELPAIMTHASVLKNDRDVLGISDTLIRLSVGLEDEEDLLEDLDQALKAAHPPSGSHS
procedure_details: IC50 assay: inhibition of H2S production by purified hCSE, WSP5 fluorescent probe
Format: biochemical
setup_conditions: purified hCSE 0.02 μM, 100 μM L-cysteine, WSP5 probe, mean ± SD; read-out: IC50 biochemical assay hCSE
pIC50: −log10 of the molar value.
Measured pIC50 by item

| chemical_string | system | pIC50 |
| --- | --- | --- |
| O=C(O)c1ccc2c(ccn2Cc2ccc3ccccc3c2)c1 | human cystathionine-γ-lyase (hCSE) (Homo sapiens, UniProt P32929) | < 3.30 |
| Cc1oc(Cn2ccc3ccc(Br)cc32)cc1C(=O)O | human cystathionine-γ-lyase (hCSE) (Homo sapiens, UniProt P32929) | < 3.30 |
| O=C(O)c1ccc2ccn(Cc3ccc4ccccc4c3)c2c1 | human cystathionine-γ-lyase (hCSE) (Homo sapiens, UniProt P32929) | < 3.30 |
